tgt: human recombinant mGluR5 (Homo sapiens, UniProt P41594)
Construct: expressed in transfected cells; host or cells: HEK 293 cell line, cultured with tetracycline, hygromycin and geneticin; tetracycline is withdrawn 3-7 days before the assay
Sequence (P41594 21-1212): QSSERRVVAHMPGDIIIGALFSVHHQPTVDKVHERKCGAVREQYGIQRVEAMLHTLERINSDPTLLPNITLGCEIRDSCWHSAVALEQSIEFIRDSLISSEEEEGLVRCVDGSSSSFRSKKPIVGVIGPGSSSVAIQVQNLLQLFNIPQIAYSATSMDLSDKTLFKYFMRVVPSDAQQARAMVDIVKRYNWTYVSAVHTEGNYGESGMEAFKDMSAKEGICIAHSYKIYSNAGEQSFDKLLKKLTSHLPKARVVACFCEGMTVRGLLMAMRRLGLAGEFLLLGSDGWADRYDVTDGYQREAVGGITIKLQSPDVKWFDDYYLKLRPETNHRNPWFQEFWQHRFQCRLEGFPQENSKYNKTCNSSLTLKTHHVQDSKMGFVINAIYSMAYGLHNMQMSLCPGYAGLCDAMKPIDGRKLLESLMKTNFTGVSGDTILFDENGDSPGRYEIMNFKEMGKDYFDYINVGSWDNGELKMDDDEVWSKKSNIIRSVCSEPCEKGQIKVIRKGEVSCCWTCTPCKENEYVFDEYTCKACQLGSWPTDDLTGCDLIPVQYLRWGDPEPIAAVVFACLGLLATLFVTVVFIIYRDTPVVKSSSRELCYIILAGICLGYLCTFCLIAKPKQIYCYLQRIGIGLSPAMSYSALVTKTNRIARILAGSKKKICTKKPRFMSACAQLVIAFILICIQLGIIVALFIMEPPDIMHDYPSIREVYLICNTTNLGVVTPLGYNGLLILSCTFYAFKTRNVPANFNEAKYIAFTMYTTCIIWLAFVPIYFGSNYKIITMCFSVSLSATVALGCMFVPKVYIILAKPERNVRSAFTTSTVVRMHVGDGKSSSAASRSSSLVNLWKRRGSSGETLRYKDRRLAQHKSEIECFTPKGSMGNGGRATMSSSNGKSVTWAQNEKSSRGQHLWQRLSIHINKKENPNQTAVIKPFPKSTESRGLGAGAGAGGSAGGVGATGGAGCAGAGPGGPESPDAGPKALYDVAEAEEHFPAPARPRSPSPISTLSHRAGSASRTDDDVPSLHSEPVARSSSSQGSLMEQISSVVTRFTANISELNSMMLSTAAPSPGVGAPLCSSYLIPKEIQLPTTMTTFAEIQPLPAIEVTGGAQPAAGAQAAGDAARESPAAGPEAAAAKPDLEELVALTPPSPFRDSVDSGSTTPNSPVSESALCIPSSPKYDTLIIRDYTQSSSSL
assayMethodText: positive modulation of mGluR5, calcium based FLIPR assay
Format: cell-based
testSettings: EC50 of the modulation; HEK 293 cell line expressing human recombinant mGluR5; peak height of Ca fluorescence signal after glutamate at approx. 5% basal stimulation; read-out: EC50
valueType: EC50 (nM)
Numbers only, in nM.

Reference set, count: 3
COc1cc2c(cc1OC)CN(C(=O)Cn1nc(-c3ccc(F)cc3)nc1-c1ccc(F)cc1)CC2
1680
COc1ccc(-c2nc(-c3ccccc3)n(CC(=O)N3CCc4nc(N)sc4CC3)n2)cc1
282
Cc1noc(C2CCN(C(=O)Cn3nc(-c4ccc(F)cc4)nc3-c3ccc(F)cc3)CC2)n1 [Example 7.02.38.]
1150

Here is another compound to look at.
Return value of EC50 for input `COc1ccc(-c2nc(-c3ccccc3)n(CC(=O)N3CCN(c4ccccn4)C(=O)C3)n2)cc1` , no commentary.
242
